Data origin: PubChem BioAssay

assay: modulators of S6 phosphorylation in cells, primary screen, cell-based, A549, cytoblot, luminescence, serum-stimulated (AID 1158); conditions: A549 phospho-S6 cytoblot, 5 h, higher = more signal;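 note: serum-stimulated A549 lung adenocarcinoma cells; signal is phosphorylated S6 detected by cytoblot immunostaining with HRP secondary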
Binary call on z-score: satisfied from 0.5 upward, not satisfied beneath that.

COMPOUND	ASSIGNED_LABEL
NCCCCCCNC(=O)[C@@H]1C[C@@H]2C(=O)N[C@@H](Cc3ccccc3)C(=O)N2[C@@H]1c1ccc(O)cc1	not satisfied
O=C1c2ccccc2[C@@]2(Cc3ccccc3N(CC(F)(F)F)C2=O)[C@H](c2ccc(CO)cc2)N1Cc1ccccc1C(F)(F)F	satisfied
CCOC(=O)C[C@H]1[C@H](OC(=O)c2ccc(-c3ccccc3)cc2)[C@@H](NC(=O)c2ccccc2)c2cc(OCCCO)ccc2N1C(=O)c1ccccc1	satisfied
O=C1O[C@H](c2ccccc2)[C@H](c2ccccc2)N2[C@H]1[C@@H](C(=O)NC[C@H](O)c1ccccc1)[C@]1(C(=O)Nc3ccc(C#CC4(O)CCCCCC4)cc31)[C@H]2c1ccc(O)cc1	not satisfied
CN1C=C(C(=O)OCCS(C)(=O)=O)C(C(=O)OCCS(C)(=O)=O)=CC(CCCO)=CC1c1cccs1 (stereo unspecified)	not satisfied
